// data source = patent US20100068208A1

measured on: T1, TGR12-GFP (fused protein of human TGR12 and GFP, encoded by the DNA of SEQ ID NO: 45), stably expressed on … (human, UniProt Q96LB1 1-330)
T1 construct: also called TGR12-GFP expression CHO cell line; not shown: GFP (Wako Pure Chemical) fused after the C-terminus of TGR12
T1 sequence: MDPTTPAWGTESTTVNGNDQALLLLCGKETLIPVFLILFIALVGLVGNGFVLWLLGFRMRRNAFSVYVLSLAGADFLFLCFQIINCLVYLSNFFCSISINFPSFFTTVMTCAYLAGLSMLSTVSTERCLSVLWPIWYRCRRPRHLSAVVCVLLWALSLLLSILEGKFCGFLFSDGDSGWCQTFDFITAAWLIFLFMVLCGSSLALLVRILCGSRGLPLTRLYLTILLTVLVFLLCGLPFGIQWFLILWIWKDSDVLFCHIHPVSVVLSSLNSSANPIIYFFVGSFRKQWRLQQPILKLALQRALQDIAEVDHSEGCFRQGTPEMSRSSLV
measurement description: competition with 200 pM [125I]-rCST14 (Y0) on CHO-TGR12GFP cells, Hill plot
Where no end group is shown, it is not given here.
Listing: pIC50 of selected binders
Kindly note that pIC50 refers to -log10 of the concentration in mol/L and answer with the value alone.

See these solved cases before continuing.
binder="HSDAVFTDNYTRLRKQMAVKKYLNSILN (peptide, UniProt P01282 125-152, looked up, not fully specified; ends and bridges not checked, domain: VIP; also called vasoactive intestinal peptide) [human VIP (vasoactive intestinal polypeptide)]" reported=5.69
binder="HSDGIFTDSYSRYRKQMAVKKYLAAVLGKRYKQRVKNK (peptide, UniProt P18509 132-169, looked up, not fully specified; ends and bridges not checked, domain: PACAP-38) [human PACAP38 (pituitary adenylate cyclase activating polypeptide 38)]" reported=7.33

Provide only the value of recorded pIC50 for HSDGIFTDSYSRYRKQMAVKKYLAAVL (peptide, UniProt P18509 132-158, looked up, not fully specified; ends and bridges not checked, domain: PACAP-27) [human PACAP27 (pituitary adenylate cyclase activating polypeptide 27)] 6.58
